assayName: Oral bioavailability study, AA in rat serum
Assay type: in vivo, wistar rats
conditionsUsed: Wistar, single oral dose ~100 mg/kg AA, read-out: Elimination half-life (t1/2el) (converted)
endpointLabel: half-life (h)
Lab book: enter the figure in h, no units written.

stdin: Which value of half-life has been reported for `C[C@H]1[C@H](C)CC[C@]2(C(=O)O)CC[C@]3(C)C(=CC[C@@H]4[C@@]5(C)C[C@@H](O)[C@H](O)[C@@](C)(CO)[C@@H]5CC[C@]43C)[C@H]12` in the records?
stdout: 1.97

The origin of these recorded values is paper PMC9887206.
